The reported measurements were obtained from patent US20220204479A1.

# Protocol Summary: Thermodynamic solubility test
# Assay type: physicochemical
# Run Conditions: phosphate buffer (PBS), aqueous buffer, thermodynamic from solid, PBS pH 7.4, overnight at room temperature, read-out: Solubility, PBS (pH 7.4)
Observation Type: solubility
State the value, then name its unit.

Note down solubility recorded for O=C(COCCc1cnn[nH]1)N1Cc2cnc(NC3Cc4ccccc4C3)nc2C1 [Control compound 1, reference compound]
6.3 µg/mL

Note down solubility recorded for CC1CC(COCc2c[nH]nn2)CCN1C(=O)c1cnc(NC2Cc3ccccc3C2)nc1 (stereo not shown)
129 µg/mL

Note down solubility recorded for CC1CN(C(=O)c2cnc(NC3Cc4ccccc4C3)nc2)CCC1COCc1c[nH]nn1 (stereo not shown)
147 µg/mL

Note down solubility recorded for O=C(c1cnc(NC2Cc3ccccc3C2)nc1)N1CCC(COCc2c[nH]nn2)C(F)C1 (stereo not shown)
18.6 µg/mL

###

# Protocol Summary: Pharmacokinetic test in rats
# Type: in vivo
# Run Conditions: Sprague-Dawley, rat, in vivo; male SD rats, oral gavage 10 mg/kg
Observation Type: Tmax
State the value, then name its unit.

Note down Tmax recorded for O=C(c1cnc(NC2Cc3ccccc3C2)nc1)N1CC2(CC(OCc3c[nH]nn3)C2)C1
25.2 min

###

# Protocol Summary: Pharmacokinetic test in rats
# Format: in vivo
# Run Conditions: Sprague-Dawley, rat, plasma; male SD rats, oral gavage 10 mg/kg; read-out: Cmax
Observation Type: Cmax (ng/mL)
# unit: ng/mL | format: bare number

Note down Cmax recorded for O=C(c1cnc(NC2Cc3ccccc3C2)nc1)N1CCC(COCc2cn[nH]n2)CC1 [Compound I-1]
3180

Note down Cmax recorded for CCc1nc2c(C)cc(N3CCN(CC(=O)N4CC(O)C4)CC3)cn2c1N(C)c1nc(-c2ccc(F)cc2)c(C#N)s1 [Control compound 2, reference compound]
582

###

Please go through the items and note down their half-life at 1 µM.
# Protocol Summary: Human liver microsome stability test
# Run Conditions: human, human liver microsomes
# unit: min | format: bare number

Note down half-life at 1 µM recorded for CC(OCC1CCN(C(=O)c2cnc(NC3Cc4ccccc4C3)nc2)CC1)c1cn[nH]n1 (stereo not drawn) [Compound I-2]
24

Note down half-life at 1 µM recorded for CCc1nc2c(C)cc(N3CCN(CC(=O)N4CC(O)C4)CC3)cn2c1N(C)c1nc(-c2ccc(F)cc2)c(C#N)s1 [Control compound 2, reference compound]
16

Note down half-life at 1 µM recorded for O=C(c1cnc(NC2Cc3ccccc3C2)nc1)N1CCC(COCc2cn[nH]n2)CC1 [Compound I-1]
99

###

Please go through the items and note down their Tmax.
# Protocol Summary: Pharmacokinetic test in mice
# Type: in vivo
# Run Conditions: mouse, plasma; male CD-1 mice, oral gavage 10 mg/kg
# unit: min | format: bare number

Note down Tmax recorded for O=C(c1cnc(NC2Cc3ccccc3C2)nc1)N1CC2(CC(OCc3c[nH]nn3)C2)C1 [Compound I-9]
19.8

Note down Tmax recorded for O=C(c1cnc(NC2Cc3ccccc3C2)nc1)N1CCC(COCc2cn[nH]n2)CC1 [Compound I-1]
25.2

Note down Tmax recorded for O=C(COCCc1cnn[nH]1)N1Cc2cnc(NC3Cc4ccccc4C3)nc2C1 [Control compound 1, reference compound]
15

###

# Protocol Summary: Pharmacokinetic test in mice
# Assay type: in vivo
# Run Conditions: mouse, plasma; male CD-1 mice, oral gavage 10 mg/kg
Observation Type: Cmax (ng/mL)
# unit: ng/mL | format: bare number

Note down Cmax recorded for O=C(COCCc1cnn[nH]1)N1Cc2cnc(NC3Cc4ccccc4C3)nc2C1 [Control compound 1, reference compound]
1500

Note down Cmax recorded for O=C(c1cnc(NC2Cc3ccccc3C2)nc1)N1CCC(COCc2cn[nH]n2)CC1 [Compound I-1]
1860

Note down Cmax recorded for O=C(c1cnc(NC2Cc3ccccc3C2)nc1)N1CC2(CC(OCc3c[nH]nn3)C2)C1 [Compound I-9]
3870

###

Please go through the items and note down their AUC(0-t).
# Protocol Summary: Pharmacokinetic test in mice
# Format: in vivo
# Run Conditions: mouse, plasma; male CD-1 mice, oral gavage 10 mg/kg
# unit: ng·h/mL | format: bare number

Note down AUC(0-t) recorded for O=C(COCCc1cnn[nH]1)N1Cc2cnc(NC3Cc4ccccc4C3)nc2C1 [Control compound 1, reference compound]
2570

Note down AUC(0-t) recorded for O=C(c1cnc(NC2Cc3ccccc3C2)nc1)N1CC2(CC(OCc3c[nH]nn3)C2)C1
4590

Note down AUC(0-t) recorded for O=C(c1cnc(NC2Cc3ccccc3C2)nc1)N1CCC(COCc2cn[nH]n2)CC1
2390

###

# Protocol Summary: Pharmacokinetic test in rats
# Assay type: in vivo
# Run Conditions: Sprague-Dawley, rat, plasma; male SD rats, oral gavage 10 mg/kg
Observation Type: Tmax (min)
# unit: min | format: bare number

Note down Tmax recorded for O=C(COCCc1cnn[nH]1)N1Cc2cnc(NC3Cc4ccccc4C3)nc2C1 [Control compound 1, reference compound]
25.2

Note down Tmax recorded for O=C(c1cnc(NC2Cc3ccccc3C2)nc1)N1CCC(COCc2cn[nH]n2)CC1
30

Note down Tmax recorded for CCc1nc2c(C)cc(N3CCN(CC(=O)N4CC(O)C4)CC3)cn2c1N(C)c1nc(-c2ccc(F)cc2)c(C#N)s1 [Control compound 2, reference compound]
30

###

# Protocol Summary: Pharmacokinetic test in canines
# Assay type: in vivo
# Run Conditions: dog, plasma; male beagle dogs, oral gavage 5 mg/kg
Observation Type: Cmax

Note down Cmax recorded for O=C(COCCc1cnn[nH]1)N1Cc2cnc(NC3Cc4ccccc4C3)nc2C1 [Control compound 1, reference compound]
2390 ng/mL

Note down Cmax recorded for O=C(c1cnc(NC2Cc3ccccc3C2)nc1)N1CCC(COCc2cn[nH]n2)CC1 [Compound I-1]
3670 ng/mL

Note down Cmax recorded for CCc1nc2c(C)cc(N3CCN(CC(=O)N4CC(O)C4)CC3)cn2c1N(C)c1nc(-c2ccc(F)cc2)c(C#N)s1 [Control compound 2, reference compound]
2100 ng/mL

Note down Cmax recorded for O=C(c1cnc(NC2Cc3ccccc3C2)nc1)N1CC2(CC(OCc3c[nH]nn3)C2)C1 [Compound I-9]
2090 ng/mL

###

Please go through the items and note down their Tmax.
# Protocol Summary: Pharmacokinetic test in canines
# Format: in vivo
# Run Conditions: dog, plasma; male beagle dogs, oral gavage 5 mg/kg
State the value, then name its unit.

Note down Tmax recorded for O=C(c1cnc(NC2Cc3ccccc3C2)nc1)N1CC2(CC(OCc3c[nH]nn3)C2)C1 [Compound I-9]
1.17 h

Note down Tmax recorded for O=C(c1cnc(NC2Cc3ccccc3C2)nc1)N1CCC(COCc2cn[nH]n2)CC1 [Compound I-1]
1.17 h

Note down Tmax recorded for O=C(COCCc1cnn[nH]1)N1Cc2cnc(NC3Cc4ccccc4C3)nc2C1 [Control compound 1, reference compound]
1 h

Note down Tmax recorded for CCc1nc2c(C)cc(N3CCN(CC(=O)N4CC(O)C4)CC3)cn2c1N(C)c1nc(-c2ccc(F)cc2)c(C#N)s1 [Control compound 2, reference compound]
2 h

###

Please go through the items and note down their solubility.
# Protocol Summary: Thermodynamic solubility test
# Assay type: physicochemical
# Run Conditions: FaSSGF solution, fassgf or other biorelevant, thermodynamic from solid, FaSSGF pH 1.6, overnight at room temperature, read-out: Solubility, FaSSGF (pH 1.6)
# unit: µg/mL | format: bare number

Note down solubility recorded for O=C(c1cnc(NC2Cc3ccccc3C2)nc1)N1CCC(COCc2c[nH]nn2)C(F)C1 (stereo not shown)
165

Note down solubility recorded for CC1CN(C(=O)c2cnc(NC3Cc4ccccc4C3)nc2)CCC1COCc1c[nH]nn1 (stereo not shown)
332

Note down solubility recorded for O=C(COCCc1cnn[nH]1)N1Cc2cnc(NC3Cc4ccccc4C3)nc2C1 [Control compound 1, reference compound]
66.5

Note down solubility recorded for CC1CC(COCc2c[nH]nn2)CCN1C(=O)c1cnc(NC2Cc3ccccc3C2)nc1 (stereo not shown)
448

###

# Protocol Summary: Human liver microsome stability test
# Run Conditions: human liver microsomes, NADPH, 37° C., 30 min
Please go through the items and note down their Remaining percentage (%) of compound after incubation for 30 min.
# unit: % | format: bare number

Note down Remaining percentage (%) of compound after incubation for 30 min recorded for O=C(COCCc1cnn[nH]1)N1Cc2cnc(NC3Cc4ccccc4C3)nc2C1 [Control compound 1, reference compound]
41.2

Note down Remaining percentage (%) of compound after incubation for 30 min recorded for O=C(c1cnc(NC2Cc3ccccc3C2)nc1)N1CC2(CC(OCc3c[nH]nn3)C2)C1
95.5

Note down Remaining percentage (%) of compound after incubation for 30 min recorded for CCc1nc2c(C)cc(N3CCN(CC(=O)N4CC(O)C4)CC3)cn2c1N(C)c1nc(-c2ccc(F)cc2)c(C#N)s1 [Control compound 2, reference compound]
24.8

Note down Remaining percentage (%) of compound after incubation for 30 min recorded for CC(OCC1CCN(C(=O)c2cnc(NC3Cc4ccccc4C3)nc2)CC1)c1cn[nH]n1 (centres unmarked)
39.65

Note down Remaining percentage (%) of compound after incubation for 30 min recorded for O=C(c1cnc(NC2Cc3ccccc3C2)nc1)N1CCC(COCc2cn[nH]n2)CC1
85.6
